# System: SK-OV-3
# assay_method_text: NCI tumour cell line growth inhibition, 48 h
Activity calls are given as the source filed them. Cut-off read from the data, not from the text of the source: active = GI50 up to about 1.1 µM and inactive = higher.
quantity_measured: GI50

Field: example entries. Status: answers known.
{"compound": "O=C(O)C[C@@H]1[C@@H](O)[C@@H](O)CN2C(=O)c3ccccc3[C@H]12", "GI50": "> 100 µM (inactive)"}
{"compound": "CCCCCC[C@H]([C@H](C)O)n1cnc2c(N)ncnc21", "GI50": "> 100 µM (inactive)"}
{"compound": "COc1cc(C2c3cc4c(cc3OC(N3CCNCC3)C2C)OCO4)cc(OC)c1OC (stereo unspecified)", "GI50": "0.476 µM (active)"}
{"compound": "C[C@]12CCC(=O)C=C1CC[C@@H]1C2CC[C@]2(C)Nc3c(cnn3-c3ccccc3)CC12 (stereo partly specified)", "GI50": "> 100 µM (inactive)"}

Report GI50 for each item below.
1. COc1ccc(-c2oc3cc(OC)c(OC)c(O)c3c(=O)c2OC)cc1
2. O=C(N/N=C/c1c(-c2ccccc2)no[n+]1[O-])N1CCOCC1
3. CCC(=O)Nc1ccc(/N=N/N(C)C)cc1

["22.7 µM (inactive)", "> 100 µM (inactive)", "> 100 µM (inactive)"]

Report GI50 for each item below.
1. O=C(NNC(=S)Nc1ccccc1)C12CC3CC(CC(C3)C1)C2
2. CNC(=S)N1CCN(C(C)=O)C1=S
3. COc1cc(/C=C/c2ccc(Br)cc2)cc(OC)c1OC

1: 41.4 µM (inactive); 2: 66.8 µM (inactive); 3: 20.7 µM (inactive)

So for `CC/C=C/C(=O)CC(O)(C(F)(F)F)C(F)(F)F` , the logged GI50 turned out to be > 100 µM (inactive)

Every entry's value here was drawn from ChEMBL document CHEMBL1201862.
